- test_target: recombinant human MAO-A (monoamine oxidase-A) (Homo sapiens, UniProt P21397)
- Construct: purchased Sigma-Aldrich
- Sequence (P21397 whole entry): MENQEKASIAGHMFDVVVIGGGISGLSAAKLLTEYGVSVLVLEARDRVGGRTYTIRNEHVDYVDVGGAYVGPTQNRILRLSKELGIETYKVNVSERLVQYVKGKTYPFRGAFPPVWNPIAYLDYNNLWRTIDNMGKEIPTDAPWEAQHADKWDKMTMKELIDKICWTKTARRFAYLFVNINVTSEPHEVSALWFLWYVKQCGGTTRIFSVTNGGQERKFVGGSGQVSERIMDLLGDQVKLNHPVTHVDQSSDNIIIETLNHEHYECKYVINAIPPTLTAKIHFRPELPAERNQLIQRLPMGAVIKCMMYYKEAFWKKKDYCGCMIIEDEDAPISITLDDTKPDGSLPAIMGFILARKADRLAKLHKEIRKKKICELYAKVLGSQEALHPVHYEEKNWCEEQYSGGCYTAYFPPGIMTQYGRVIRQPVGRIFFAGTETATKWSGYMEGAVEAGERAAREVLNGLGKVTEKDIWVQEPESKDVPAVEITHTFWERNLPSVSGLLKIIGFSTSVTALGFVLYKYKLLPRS
- assay_protocol: Activity on recombinant human MAO-A, Amplex Red method, 0.5 mM tyramine substrate
- Format: biochemical
- assay_context: 0.5 mM tyramine, read-out: Inhibitory Activity (IC50, nM) MAO-A
Structures can show the parent of a compound that is named as a salt.
measured_parameter: IC50 (nM)

a. NC/C(=C\F)Cn1ncn(-c2ccc(-c3cccc(-c4nnc[nH]4)c3)cc2F)c1=O
b. NC/C(=C/F)Cn1ncn(-c2ccc(Br)nc2)c1=O
c. Cc1cc(-n2cnn(C/C(=C/F)CN)c2=O)ccc1Br [Example 16, hydrochloride]
d. NC/C(=C\F)Cn1ncn(-c2cccc(-c3cccc(-c4ccc5c(c4)OCO5)c3)c2)c1=O [Example 71, hydrochloride]
Exam item: Consider the compounds listed above. Rank them by IC50 in ascending numerical order. Labels, ranked as asked.
Marked response: b, d, c, a
